Where do these numbers come from? They come from patent US20060069132A1.

# System: pigweed
# assay-protocol: Test B pre-/postemergence herbicide test
# Assay type: in vivo, Amaranthus retroflexus
# assay-conditions: preemergence, 125 g ai/ha; 0 to 100 scale, 0 is no effect, 100 is complete control
Readings of Plant response rating, Pigweed for the listed molecules

[
  {
    "molecule": "CCOC(=O)c1ccc(F)c(NC(=O)c2cc(C(C)(C)C)nn2CC)c1",
    "Plant response rating, Pigweed": 30
  },
  {
    "molecule": "CCn1nc(C(C)(C)C)cc1C(=O)Nc1cccc(C(N)=O)n1",
    "Plant response rating, Pigweed": 100
  },
  {
    "molecule": "CCn1nc(C(C)(C)C)cc1C(=O)Nc1cccc(SC)c1",
    "Plant response rating, Pigweed": 100
  },
  {
    "molecule": "C#CCNC(=O)c1cccc(NC(=O)c2cc(C(C)(C)C)nn2CC)c1",
    "Plant response rating, Pigweed": 100
  },
  {
    "molecule": "CC(C)NS(=O)(=O)c1cccc(NC(=O)c2cc(C(C)(C)C)nn2C)c1",
    "Plant response rating, Pigweed": 30
  },
  {
    "molecule": "CCn1nc(C(C)(C)C)cc1C(=O)Nc1cccc([S+]([O-])C(F)(F)F)c1 (stereo not drawn)",
    "Plant response rating, Pigweed": 60
  },
  {
    "molecule": "CCn1nc(C(C)(C)C)cc1C(=O)Nc1cccc(C(=O)OCC(F)(F)F)c1",
    "Plant response rating, Pigweed": 0
  },
  {
    "molecule": "CCN(C)C(=O)c1cccc(NC(=O)c2cc(C(C)(C)C)nn2CC)c1",
    "Plant response rating, Pigweed": 100
  },
  {
    "molecule": "CCCCNS(=O)(=O)c1cccc(NC(=O)c2cc(C(C)(C)C)nn2C)c1",
    "Plant response rating, Pigweed": 0
  },
  {
    "molecule": "CCn1nc(C(C)(C)C)cc1C(=O)Nc1cc(C(=O)NCCOC)ccn1",
    "Plant response rating, Pigweed": 100
  },
  {
    "molecule": "CCN(CC)C(=O)c1cc(NC(=O)c2cc(C(C)(C)C)nn2CC)ccc1F",
    "Plant response rating, Pigweed": 100
  },
  {
    "molecule": "C=Cn1nc(C(C)(C)C)cc1C(=O)Nc1cccc(C(C)=O)c1",
    "Plant response rating, Pigweed": 40
  }
]

----------
# Test system: blackgrass
# assay-protocol: Test B postemergence herbicide test
# Format: in vivo, Alopecurus myosuroides
# assay-conditions: Postemergence, 500 g ai/ha; visual rating after 13 to 15 days, scale 0 (no effect) to 100 (complete control)
Lab note - cut at 20 for Plant response rating, Blackgrass: Condition met if strictly below, Condition not met if not.

[
  {
    "compound-structure-string": "C=Cn1nc(C(C)(C)C)cc1C(=O)Nc1cccc(C(=O)NCC(F)(F)F)c1",
    "discrete-label": "Condition met"
  },
  {
    "compound-structure-string": "CCNC(=O)c1ccc(F)c(NC(=O)c2cc(C(C)(C)C)nn2CC)c1",
    "discrete-label": "Condition not met"
  },
  {
    "compound-structure-string": "CCON=C(C)c1cccc(NC(=O)c2cc(C(C)(C)C)nn2C)c1",
    "discrete-label": "Condition met"
  },
  {
    "compound-structure-string": "C#CCn1nc(C(C)(C)C)cc1C(=O)Nc1cccc(C(=O)NCC)c1",
    "discrete-label": "Condition not met"
  },
  {
    "compound-structure-string": "CCOC(=O)c1cc(NC(=O)c2cc(C(C)(C)C)nn2CC)ccc1C",
    "discrete-label": "Condition not met"
  },
  {
    "compound-structure-string": "CC(=NO)c1cccc(NC(=O)c2cc(C(C)(C)C)nn2C(C)C)c1",
    "discrete-label": "Condition met"
  }
]
